Reference source: patent US20220073617A1

Target: T1, monovalent hVISTA-ECD (human VISTA extracellular domain with His tail) (human, UniProt Q9H7M9 33-193)
T1 construct: analyte flowed over captured antibody; also called huVISTA-His
T1 sequence (Q9H7M9 other isoform, or with tags, fused parts or gaps limits assumed): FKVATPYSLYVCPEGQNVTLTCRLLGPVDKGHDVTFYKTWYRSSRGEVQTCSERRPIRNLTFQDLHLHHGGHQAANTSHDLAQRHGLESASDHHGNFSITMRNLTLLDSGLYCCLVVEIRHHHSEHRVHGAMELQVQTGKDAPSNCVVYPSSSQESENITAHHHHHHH
Experiment: SPR, pH 6.0
Property label: koff (s⁻¹)
Report the value in s⁻¹ with no unit label.

{"Binder": "P1-064510 (41F11_Vk_A25E/V29D/A64G/R91T) (antibody, V domains shown, also called P1-064510-1) VH: QVQLVESGGGLVKPGGSLRLSCAASGFTFSDYYMSWIRQAPGKGLEWVSYISNSGSPIYYADSVKGRFTISRDNAKNSLYLQMNSLRAEDTAVYYCARDLPGWYFDLWGRGTLVTVSS VL: EIVLTQSPATLSLSPGERATLSCRESQSDSSYLAWYQQKPGQAPRLLIYDASNRATGIPARFSGSGSGTDFTLTISSLEPEDFAVYYCQQTNNWPRTFGQGTKVEIK", "Unit descriptor": "s⁻¹", "koff": 0.0031}
{"Binder": "P1-064391 (41F11_HC_Mutant: D31E/Y50W/S55E/Y100E 41F11_LC_Mutant: V29D/A64G/R91T) (antibody, V domains shown, Kabat positions; also called P1-064391-1) VH: QVQLVESGGGLVKPGGSLRLSCAASGFTFSEYYMSWIRQAPGKGLEWVSWISNSGEPIYYADSVKGRFTISRDNAKNSLYLQMNSLRAEDTAVYYCARDLPGWEFDLWGRGTLVTVSS VL: EIVLTQSPATLSLSPGERATLSCRASQSDSSYLAWYQQKPGQAPRLLIYDASNRATGIPARFSGSGSGTDFTLTISSLEPEDFAVYYCQQTNNWPRTFGQGTKVEIK", "Unit descriptor": "s⁻¹", "koff": 0.033}
{"Binder": "P1-064392 (41F11_HC_Mutant: D31E/Y50W/S55E/Y100E 41F11_LC_Mutant: V29D/A64G/Q89E/R91T) (antibody, V domains shown, Kabat positions; also called P1-064392-1) VH: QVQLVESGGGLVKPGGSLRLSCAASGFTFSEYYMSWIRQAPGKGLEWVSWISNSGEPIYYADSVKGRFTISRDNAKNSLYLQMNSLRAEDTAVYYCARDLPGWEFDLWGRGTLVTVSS VL: EIVLTQSPATLSLSPGERATLSCRASQSDSSYLAWYQQKPGQAPRLLIYDASNRATGIPARFSGSGSGTDFTLTISSLEPEDFAVYYCEQTNNWPRTFGQGTKVEIK", "Unit descriptor": "s⁻¹", "koff": 0.0086}
{"Binder": "P1-061528 (41F11 NGS mut VK_A64G/R91A) (antibody, V domains shown, also called P1-061528-2) VH: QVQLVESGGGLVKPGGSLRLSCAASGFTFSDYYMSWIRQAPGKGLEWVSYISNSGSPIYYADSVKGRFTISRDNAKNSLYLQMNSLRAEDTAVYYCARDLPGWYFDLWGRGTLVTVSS VL: EIVLTQSPATLSLSPGERATLSCRASQSVSSYLAWYQQKPGQAPRLLIYDASNRATGIPARFSGSGSGTDFTLTISSLEPEDFAVYYCQQANNWPRTFGQGTKVEIK", "Unit descriptor": "s⁻¹", "koff": 0.0021}
{"Binder": "P1-064490 (41F11_VH_F27EY50EL96E) (antibody, V domains shown, Kabat positions; also called P1-064490-1; P1-064490-2) VH: QVQLVESGGGLVKPGGSLRLSCAASGETFSDYYMSWIRQAPGKGLEWVSEISNSGSPIYYADSVKGRFTISRDNAKNSLYLQMNSLRAEDTAVYYCARDEPGWYFDLWGRGTLVTVSS VL: EIVLTQSPATLSLSPGERATLSCRASQSVSSYLAWYQQKPGQAPRLLIYDASNRATGIPARFSASGSGTDFTLTISSLEPEDFAVYYCQQRNNWPRTFGQGTKVEIK", "Unit descriptor": "s⁻¹", "koff": 0.013}

From here, focus on the item given below.
Record P1-065333 (41F11_VH_T28P/Y50W/S55E/L96E/Y100E VK_A64G) (antibody, human IgG1, kappa, V domains shown, IgG1.3; also called P1-065333-1; VISTA.4 pH-independent progeny) VH: QVQLVESGGGLVKPGGSLRLSCAASGFPFSDYYMSWIRQAPGKGLEWVSWISNSGEPIYYADSVKGRFTISRDNAKNSLYLQMNSLRAEDTAVYYCARDEPGWEFDLWGRGTLVTVSS VL: EIVLTQSPATLSLSPGERATLSCRASQSVSSYLAWYQQKPGQAPRLLIYDASNRATGIPARFSGSGSGTDFTLTISSLEPEDFAVYYCQQRNNWPRTFGQGTKVEIKR , field koff: 0.0013
